Where do these numbers come from? They come from patent US20260297176.

Target: T1, human IL-11 (human)
T1 chain: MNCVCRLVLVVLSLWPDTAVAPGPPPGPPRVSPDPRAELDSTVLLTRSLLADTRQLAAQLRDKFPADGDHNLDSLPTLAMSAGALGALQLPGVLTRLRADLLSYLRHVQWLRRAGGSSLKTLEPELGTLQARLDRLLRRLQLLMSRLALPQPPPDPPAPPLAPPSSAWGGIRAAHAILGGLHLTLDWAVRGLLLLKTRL
Assay: SPR
measurement.kind: Kd (nM)
Could you give me the number in nM? Just the number is fine.

Task item: Given CSJ-A-s-2B11 (antibody, V domains shown) VH: QVQLKESGPGLVQPSQTLSLTCTVSGFSLDNYNVHWVRQPTGGGLEWLGGIWTDGITDYTSPLRSRLSISRDTSKSQVFLKMKSLQTEDIATYYCARSYYYSLYYFDYWGQGVMVTVSS VL: DIQMTQSPASLSASLGETVTIECRASEDIYSNLAWYQQKPGDSPQLLIYDAHRLAEGVPSRFSGSGSGTQYSLKINSLHSEDVASYFCQQYDNYNTFGVGTKLDLK , state its recorded Kd.
Reply: 0.0238
